# protocol.notes: binders of probe aFSTL3 on microarray, primary screen, stem cell growth factor project, biochemical, small-molecule microarray, fluorescence 635/667 (AID 1064);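 further: measures binding of the biotinylated anti-FSTL3 antibody to printed compounds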
# condition: higher = more signal
endpoint.name: composite z-score
# respond with the number and nothing more

These solved cases illustrate the format of a correct answer.
1. COc1ccc([Si](C)(C)[C@H]2[C@H](CCn3cc(CCO)nn3)O[C@@]3(C(=O)N(Cc4ccc(N5CCOC5=O)cc4)c4ccccc43)[C@@H]2C)cc1 :: 0.102
2. CCOC(=O)[C@H]1C[C@H]2O[C@@]23C[C@H]1C(=O)N1CCCC1[C@@H]3O[Si](C)(C)C(C)(C)C (some centres undefined) :: -0.328

Give composite z-score for CCCCCN1CC=CC23O[C@@H]4C=CCOC(=O)[C@@H]4[C@H]2C(=O)N(CCCO)[C@@H]3C1=O (some centres undefined)
-0.295

Give composite z-score for CC(C)=CCCC(C)=CC(O)C1C=CC2C(=O)N(c3ccccc3)C(=O)C2N1Nc1ccccc1 (centres undefined)
0.475

Give composite z-score for C=C[C@@H](COC(C)=O)N(Cc1ccccc1[N+](=O)[O-])S(=O)(=O)c1ccc(Br)cc1
0.0537

Give composite z-score for COCCOC(=O)N1C(=O)[C@@]2(c3cc(C#CCNC(N)=O)ccc31)[C@H](c1ccccc1OCCO)N1[C@H](c3ccccc3)[C@H](c3ccccc3)OC(=O)[C@H]1[C@@H]2C(N)=O
-0.309

Give composite z-score for Cc1cc(C)cc(N2C(=O)CS(=O)(=O)C2c2cccc([N+](=O)[O-])c2)c1 (centres undefined)
0.228

* * *

# protocol.notes: binders from COS7 lysate, DM2A8 probe, primary screen, torsin A project, cell lysate, small-molecule microarray, fluorescence 635/667 (AID 1065)
# condition: higher = more signal, COS7 lysate expressing mutant human TOR1A
endpoint.name: composite z-score
# respond with the number and nothing more

Give composite z-score for CCOC(=O)C[C@H]1[C@H](OC(=O)c2ccccc2-c2ccccc2)[C@@H](NC(=O)Cc2ccc(OC)cc2)c2cc(OCCCO)ccc2N1C(=O)c1ccccc1
0.629

Give composite z-score for CN(C)CCCCNC(=O)[C@H]1C[C@H]2C(=O)N[C@@H](Cc3ccccc3)C(=O)N2[C@H]1c1ccc(O)cc1
0.703

Give composite z-score for COCCOC(=O)N1C(=O)[C@@]2(c3cc(C#Cc4ccc(OC)cc4)ccc31)[C@H](C(=O)N1CCN(c3ncccn3)CC1)[C@H]1C(=O)O[C@H](c3ccccc3)[C@H](c3ccccc3)N1[C@@H]2c1ccc(O)cc1
0.0053

* * *

Parameter z-score: see the listing below.
# protocol.notes: E. coli acrAB mutant growth effects, primary screen, E. coli filamentation inducers, strain DRC39, OD650, 48 h (AID 1179);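 further: screen aims at cell division blockers that make cells filament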
# condition: E. coli DRC39 delta-acrAB growth, higher = more signal, called active from +8 up or from −8 down
# respond with the number and nothing more

1. Cc1ccc(S[C@]2(C(=O)NCC(C)C)CC(=O)N(Cc3ccccc3)[C@@H]2c2ccc(CO)cc2I)cc1 :: -0.553
2. C=CCC(OC(C)=O)[C@@H]1[C@@H](N(Cc2ccc(-c3ccccc3)cc2)C(=O)Cc2ccc(F)cc2)c2cc(OCCCO)ccc2N1C(=O)c1ccc2ccccc2n1 (some centres undefined) :: 0.761
3. COc1ccc(C(=O)Nc2cccc(CN3C(=O)[C@@]4(O[C@@H](CCn5cc(CCO)nn5)[C@H]([Si](C)(C)c5ccc(OC)cc5)[C@H]4C)c4ccccc43)c2)cc1 :: 0.633

Give z-score for COCCCNC(=O)[C@@]1(C)c2ccccc2C(=O)N(Cc2cc(C(F)(F)F)cc(C(F)(F)F)c2)[C@H]1c1ccc(CO)cc1
1.3
